# tested-on: THR beta-LBD (Homo sapiens, UniProt P10828)
# Construct: THR alpha-LBD (0.4 nM final concentration) or THR beta-LBD (1.0 nM final concentration) was added
# Sequence (P10828 217-461 limits assumed): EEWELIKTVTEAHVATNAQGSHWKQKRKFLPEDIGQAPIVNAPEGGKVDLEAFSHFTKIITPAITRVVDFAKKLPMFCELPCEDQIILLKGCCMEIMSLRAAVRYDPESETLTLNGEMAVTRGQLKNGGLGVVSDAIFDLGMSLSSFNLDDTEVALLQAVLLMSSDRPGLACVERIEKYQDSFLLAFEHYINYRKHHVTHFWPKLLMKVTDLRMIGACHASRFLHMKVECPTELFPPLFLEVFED
# assay-summary: LanthaScreen TR-FRET Thyroid Receptor beta Coactivator Assay
# measurement-context: TR-FRET coactivator assay, 2 hours incubation at room temperature; run in duplicate multiple times, average data; read-out: EC50 THRβ-FRET
observed-property: EC50 (µM)

{"columns": ["compound", "tested-on", "result-unit", "EC50"],
 "data": [
  ["CCOC(=O)Cn1nc(-c2cc(Cl)c(Oc3cc(C(C)C)c(=O)[nH]n3)c(Cl)c2)c(=O)[nH]c1=O", "THR beta-LBD (Homo sapiens, UniProt P10828)", "µM", 1.93],
  ["CCn1nc(-c2cc(Cl)c(Oc3cc(C(C)C)c(=O)[nH]n3)c(Cl)c2)c(=O)[nH]c1=O", "THR beta-LBD (Homo sapiens, UniProt P10828)", "µM", 1.41]
]}

I. CC(C)c1cc(C(=O)c2c(Cl)cc(-c3nn(C)c(=O)[nH]c3=O)cc2Cl)n[nH]c1=O
II. CC(C)c1cc(Oc2c(Cl)cc(-c3nn(CC(F)(F)F)c(=O)[nH]c3=O)cc2Cl)n[nH]c1=O
III. CC(C)c1cc(Oc2c(Cl)cc(-c3nn(CC(F)F)c(=O)[nH]c3=O)cc2Cl)n[nH]c1=O
IV. CC[C@@H](C)c1cc(Oc2c(Cl)cc(-c3n[nH]c(=O)[nH]c3=O)cc2Cl)n[nH]c1=O (single isomer, unassigned) [Compound 33 P2]
### Prompt Output the entries ranked by EC50 from maximum down to minimum. Please reply with the labels ordered as requested. Many thanks.
### Response II, III, I, IV
(II: 2.88 µM, III: 1.38 µM, I: 0.75 µM, IV: 0.0657 µM)
